Experiment: CellTiter-Glo viability, DU-145
Type: cell-based
Conditions: human, DU-145 cells; DU-145, 600 nM; read-out: cell viability by CellTiter-Glo
Description: Viability was determined at the maximum drug concentration measured in a given experiment via CellTiter-Glo® (CTG) per manufacturers recommendations: https://www.promega.com/-/media/files/resources/protocols/technical-bulletins/0/celltiter-glo-luminescent-cell-viability-assay-protocol.pdf?la=en.
readout: viability at 0.6 µM

Task: Query: viability at 0.6 µM; subject: O=C1NC(=O)C(c2cnc3ccccn23)=C1c1cn2c3c(cc(F)cc13)CN(C(=O)N1CCCCC1)CC2 [LY-2090314]
Result: ~100%

Hey, just so you know, these numbers are from patent US11942223B1.
